Please respond with reported %Inh for every item in the list.
# Tested on: AMPK-alpha1
# Construct: gene PRKAA1
# Test Conditions: concentration: 1 μM, replicates: in singlicate; n = 1;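 also: KINOMEscan kinase panel screen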
Give bare numbers, in %.

Example cases with answers are listed next.
> print(dat)
                                   compound  quantity.measured  value
1  COc1cc(Nc2nccc(N3CCC(NC(=O)C(C)c4ccc(Cl)cc4)C3)n2)cc(OC)c1OC (centres unmarked)               %Inh     17
2  COc1cc(OC)cc(-c2cc3cnc(N)nc3nc2NC(=O)NC(C)(C)C)c1               %Inh      0

// input: 7 compounds below; output: %Inh for each
1. CN1C(=O)C(Nc2cc(Cl)c(O)c(Cl)c2)=C(c2ccc(Cl)cc2)C1=O
2. COc1ccc(CNC(=O)NC2CCN(c3ccnc(Nc4ccc(F)cc4)n3)C2)cc1 (centres unmarked)
3. Cc1ccccc1COc1cc(-n2cnc3cc(Cl)ccc32)sc1C(N)=O
4. COc1cc(Nc2ccnc3ccc(C(F)(F)F)cc23)cc(OC)c1OC
5. Cc1nnc(-c2ccc3ncn(-c4ccc(S(C)=O)cc4)c3c2)o1 (centres unmarked)
6. Nc1ncnc2c1ncn2-c1cccc2ccccc12
7. Cc1ccc(-c2ccc3c(ccc4sc5c(c43)NC[C@@H](C)N=C5N(C)C)n2)cn1

[0, 0, 0, 0, 0, 0, 0]

// input: 2 compounds below; output: %Inh for each
1. COc1cccc(C2=C(Nc3cccc(C(=O)O)c3)C(=O)NC2=O)c1
2. COC(=O)c1c(-c2ccccc2)c2cc(Br)ccc2c(=O)n1Cc1ccc(S(C)(=O)=O)cc1

[45, 15]

###

# Test system: ZAP70
# Test Conditions: concentration: 1 μM, replicates: in singlicate; n = 1
Quantity Measured: %Inh (%)
Numbers only, in %.

Example cases with answers are listed next.
> print(dat)
                                   compound  quantity.measured  units  value
1  FC(F)(F)c1ccc(-c2ncn(CCCN3CCOCC3)c2-c2ccncc2)cc1               %Inh      %     12
2      O=C1NC(=O)C(c2ccccc2)=C1Nc1cccc(O)c1               %Inh      %      0
3  Nc1nccc2scc(-c3ccc4c(c3)CCN4C(=O)Cc3ccccc3)c12               %Inh      %      0
4  CC(C)(C)c1ccc(C(=O)Nc2cn3cc(-c4ccccc4)ccc3n2)cc1               %Inh      %      0
5  COc1cc2nccc(Nc3ccc(OCc4ccc(NC(C)=O)cc4)cc3)c2cc1OC.Cl               %Inh      %     16
6  Cc1nnc(-c2ccc(C)c(-c3ccc(C(=O)O)cc3)c2)o1               %Inh      %      0

// input: 4 compounds below; output: %Inh for each
1. COc1ccc(CNC(=O)NC2CCN(c3ccnc(Nc4ccc(F)cc4)n3)C2)cc1 (stereo not shown)
2. O=C(Nc1n[nH]c2cc(-c3ccccc3F)ccc12)C1CC1
3. Nc1ncnc2c1ncn2-c1cccc2ccccc12
4. O=C(NCCNc1ccnc(Nc2ccc(F)cc2)n1)Nc1ccc2c(c1)OCO2

1. 20
2. 0
3. 37
4. 0

###

Please respond with reported %Inh for every item in the list.
# System: CSNK2A1
# Test Conditions: concentration: 1 μM, replicates: in singlicate; n = 1
Numbers only, in %.

Example cases with answers are listed next.
> print(dat)
                                   compound  value
1  Cc1nnc(-c2ccc3ncn(-c4ccc(S(C)=O)cc4)c3c2)o1 (stereo not drawn)     22
2  O=C(NCCNc1ccnc(Nc2ccc(F)cc2)n1)Nc1ccc2c(c1)OCO2      3
3  O=c1cc(N2CCOCC2)nc2n(Cc3ccc(F)c(Cl)c3)ccn12      1
4             Nc1ncnc2c1ncn2-c1cccc2ccccc12      0
5  COc1cccc(C2=C(N(C)c3ccccc3)C(=O)NC2=O)c1      0

Shifting focus to the compound that follows.
Item `Cl.c1ccc(Cn2cnc3cc(Nc4ncnc5ccccc45)ccc32)cc1` has what recorded %Inh?
0

###

# Tested on: GRK7
# Test Conditions: concentration: 1 μM, replicates: in singlicate; n = 1
Quantity Measured: %Inh (%)
One number for each entry, in %.

Example cases with answers are listed next.
> print(dat)
                                   compound  assay.system  units  value
1  Cc1cccc(-c2cc(-c3c[nH]nc3-c3ccccn3)ccn2)c1          GRK7      %      0
2  COc1cc2ncn(-c3cc(OCc4ccc(S(C)(=O)=O)cc4)c(C(N)=O)s3)c2cc1OC          GRK7      %      0
3  COC(=O)c1c(-c2ccccc2)c2cc(Br)ccc2c(=O)n1Cc1ccc(S(C)(=O)=O)cc1          GRK7      %     35
4             COc1ccc(-n2cnc3c(N)ncnc32)cc1          GRK7      %      3
5  CC(C)(C)c1ccc(C(=O)Nc2cn3cc(-c4ccccc4)ccc3n2)cc1          GRK7      %      0

// input: 5 compounds below; output: %Inh for each
1. Fc1cccc(CSc2nnc(-c3ccc4c(c3)CCO4)o2)c1
2. Cc1ccc(-c2ccc3c(ccc4sc5c(c43)NC[C@@H](C)N=C5N(C)C)n2)cn1
3. CCS(=O)c1ccc(-c2coc3ccc(-c4nnc(C)o4)cc23)cc1 (centres unmarked)
4. Nc1ncnc2c1ncn2-c1cccc(F)c1
5. COc1ccc(-c2cc3c(C)nc(N)nc3n([C@H]3CC[C@H](O)CC3)c2=O)cn1

[19, 0, 19, 4, 1]

###

# Test system: p38-delta
# Test Conditions: concentration: 1 μM, replicates: in singlicate; n = 1
Please respond with reported %Inh for every item in the list.
One number for each entry, in %.

Example cases with answers are listed next.
> print(dat)
                        structure.as.smiles  quantity.measured  units  value
1                Nc1ncnc2c1ncn2-c1cccc(F)c1               %Inh      %      0
2  Cl.NS(=O)(=O)c1cccc(Nc2cc(-c3ccc(F)cc3)n[nH]2)c1               %Inh      %      0

Shifting focus to the compound that follows.
Item `Cc1cccc(-c2nc(Nc3ccc4c(cnn4C)c3)c3ccccc3n2)n1` has what recorded %Inh?
0

###

# System: PRKCH
# Test Conditions: concentration: 1 μM, replicates: in singlicate; n = 1
The label 1 is reserved for %Inh strictly under 7%; -1 covers values equal to or above it.

// below: answered molecules
> print(dat)
                                   molecule  assay.system  label.class
1  COc1cc2ncn(-c3cc(OCCCc4ccccc4)c(C(N)=O)s3)c2cc1OC [GSK205189]         PRKCH            1
2  O=c1cc(N2CCOCC2)nc2n(Cc3ccc(F)c(Cl)c3)ccn12 [GSK2297099]         PRKCH           -1
3  Cc1ccc(-c2ccc3c(ccc4sc5c(c43)NC[C@@H](C)N=C5N(C)C)n2)cn1         PRKCH            1
4  COc1ccc(-c2coc3ccc(-c4nnc(SCc5cccc(C#N)c5)o4)cc23)cc1         PRKCH            1

Given the entry `CCc1ccc(-c2ccc3c(c2)-c2nn(C)cc2S(=O)(=O)N3C)cc1` , would its reported %Inh be below 7%?
1

Given the entry Cc1cc(Nc2nc(-c3cccc(C)n3)nc3ccccc23)ccn1 [GW872411] , would its reported %Inh be below 7%?
1

Given the entry COc1cc2ncn(-c3cc(OCc4ccncc4)c(C(N)=O)s3)c2cc1OC [GSK336313] , would its reported %Inh be below 7%?
1

Given the entry Nc1ncnc2c1ncn2-c1cccc2ccccc12 [SKF-97184] , would its reported %Inh be below 7%?
1

Given the entry `CCC(=O)c1c(-c2ccccc2)c2cc(Cl)ccc2c(=O)n1Cc1cc(S(C)(=O)=O)n(CC(N)=O)n1` , would its reported %Inh be below 7%?
-1

Given the entry O=C(NCc1cccs1)c1cc(C(=O)c2c(Cl)cccc2Cl)c[nH]1 [GW823670] , would its reported %Inh be below 7%?
1

Given the entry CN1C(=O)C(Nc2ccccc2)=C(c2ccccc2)C1=O [SB-300079] , would its reported %Inh be below 7%?
1

Given the entry COc1ccc(-n2cnc3c(N)ncnc32)cc1 [SKF-97236] , would its reported %Inh be below 7%?
-1

Given the entry COc1cc2nccc(Nc3ccc(OCc4ccc(NC(C)=O)cc4)cc3)c2cc1OC.Cl [GW440135] , would its reported %Inh be below 7%?
-1

Given the entry Nc1n[nH]c2nnc(-c3ccccc3)c(-c3ccccc3)c12 [GW554060] , would its reported %Inh be below 7%?
-1

Given the entry `COc1cc(OC)cc(-c2cc3cnc(N)nc3nc2NC(=O)NC(C)(C)C)c1` , would its reported %Inh be below 7%?
1

Given the entry CCn1c(-c2nonc2N)nc2ccccc21 [SB-693162/GW549034] , would its reported %Inh be below 7%?
-1

Given the entry `Fc1cccc(CSc2nnc(-c3ccc4c(c3)CCO4)o2)c1` , would its reported %Inh be below 7%?
1

Given the entry O=C(Nc1n[nH]c2nc(-c3ccccc3)c(Br)cc12)C1CC1 [SB-708998] , would its reported %Inh be below 7%?
-1

Given the entry CCS(=O)(=O)c1ccc(OC)c(Nc2ncc(-c3ccc(F)cc3)o2)c1.Cl [GW591947] , would its reported %Inh be below 7%?
-1

Given the entry Cc1nnc(-c2ccc3ncn(-c4ccc(S(C)=O)cc4)c3c2)o1 (stereo not shown) , would its reported %Inh be below 7%?
1

Given the entry COc1cc(Nc2nccc(N3CCC(NC(=O)C4COc5ccccc5O4)C3)n2)cc(OC)c1OC (stereo not shown) [GSK1379761] , would its reported %Inh be below 7%?
1

Given the entry O=C1NC(=O)C(c2ccccc2)=C1Nc1cccc(O)c1 [SB-390534] , would its reported %Inh be below 7%?
1

Given the entry Nc1ncnc2c1ncn2-c1cccc(F)c1 [SKF-97560] , would its reported %Inh be below 7%?
1
